# Tested on: Mus musculus
# experimentalDetails: Toxicity in ovariectomized ICR mouse assessed as effect on body weight at 110.3 nmol/kg, po after 4 weeks
# Assay type: organism-based
# conditionsUsed: in vivo, 672 h
Numbered stars: 1 amine (or outer) side, 2 acyl side, 3 side chain; on linkers, the order of the positions; unused ones are H or OH. Bridge positions count the residues as written; N and C are the ends. Peptide text beside a SMILES is read from it. I, II: the chains in the order shown. * marks the point of attachment. Estradiol(3-OCH2CO,17-OSuc) = C[C@]12CC[C@@H]3c4ccc(OCC(=O)[*:1])cc4CC[C@H]3[C@@H]1CC[C@@H]2OC(=O)CCC(=O)[*:2]; X1 = C[C@]12CC[C@@H]3c4ccc(OCC(=O)*)cc4CC[C@H]3[C@@H]1CCC2=O

[
  {
    "compound": "C[C@]12CC[C@@H]3c4ccc(OCC(=O)N[C@@H](CCCNC(=N)N)C(=O)NCC(=O)N[C@@H](CC(=O)O)C(=O)N[C@@H](CO)C(=O)N[C@@H](CCCNC(=N)N)C(=O)NCC(=O)N[C@@H](CC(=O)O)C(=O)N[C@@H](CO)C(=O)O)cc4CC[C@H]3[C@@H]1CCC2=O (X1-RGDSRGDS-OH)",
    "Activity": "Non-toxic"
  },
  {
    "compound": "CC(C)[C@H](NC(=O)[C@H](CC(=O)O)NC(=O)CNC(=O)[C@H](CCCNC(=N)N)NC(=O)CCC(=O)O[C@H]1CC[C@H]2[C@@H]3CCc4cc(OCC(=O)N[C@@H](CCCNC(=N)N)C(=O)NCC(=O)N[C@@H](CC(=O)O)C(=O)N[C@H](C(=O)O)C(C)C)ccc4[C@H]3CC[C@]12C)C(=O)O (I: RGDV-OH / II: RGDV-OH; linker I:N-II:N via Estradiol(3-OCH2CO,17-OSuc))",
    "Activity": "Non-toxic"
  }
]

Source listed as ChEMBL document CHEMBL1151896.
